assay.overview: After a 3-day incubation at 37° C. cell viability was determined by the MTT method as described by Pauwels et al. (J. Virol. Methods 1988, 20, 309-321).To determine the cytotoxicity, cells were seeded at an initial density of 1×10^6 cells/mL in 96 well plates containing Minimum Essential Medium with Earles's salts (MEM-E), L-glutamine, 1 mM sodium pyruvate and 25 mg/L kanamycin, supplemented with 10% fetal bovine serum. Cell cultures were then incubated at 37° C. in a humidified 5% CO2 atmosphere in the absence or presence of serial dilutions of test compounds. Cell viability was determined by the MTT method.
Format: cell-based
reported.conditions: BHK-21, 72 h
pEC50: −log10 of the molar value.
assay.readout: pEC50

Query: Please report the recorded pEC50 for CC(C)OC(=O)[C@H](C)N[P@](=O)(OCC1O[C@@H](n2ccc(=O)[nH]c2=O)[C@](C)(F)[C@@H]1O)Oc1ccccc1 (stereo partly specified) .
Result: < 4.00
